- Assay: Compound depletion in hepatocytes, dog
- Format: in vitro ADME
- Assay Context: fresh hepatocytes plated on collagen-coated plates, up to 2 hours, read-out: t½, Compound Depletion in Hepatocytes, Dog
Readout Type: half-life at 1 μM (min)
Give bare numbers, in min.

// recorded half-life at 1 μM for CO[P@](=O)(c1cc(C)cc(/C=C/C#N)c1)c1c(C(N)=O)[nH]c2ccc(Cl)cc12 : 21

###

- Test Target: CYP3A4 (Homo sapiens, UniProt P08684)
- Sequence (P08684 whole entry): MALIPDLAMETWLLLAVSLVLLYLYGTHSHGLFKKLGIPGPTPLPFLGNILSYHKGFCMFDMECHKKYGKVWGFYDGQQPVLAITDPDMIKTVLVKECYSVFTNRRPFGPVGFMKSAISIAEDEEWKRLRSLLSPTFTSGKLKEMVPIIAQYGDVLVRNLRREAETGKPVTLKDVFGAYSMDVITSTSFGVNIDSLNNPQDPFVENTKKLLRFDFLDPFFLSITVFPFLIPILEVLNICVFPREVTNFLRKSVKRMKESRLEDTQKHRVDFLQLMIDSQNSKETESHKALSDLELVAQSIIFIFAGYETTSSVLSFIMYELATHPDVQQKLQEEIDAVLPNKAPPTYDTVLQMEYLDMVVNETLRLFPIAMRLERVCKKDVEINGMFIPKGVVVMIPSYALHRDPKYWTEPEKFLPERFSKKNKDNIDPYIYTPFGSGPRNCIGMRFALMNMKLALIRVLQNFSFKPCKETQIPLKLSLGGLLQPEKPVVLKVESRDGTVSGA
- Assay: Human liver microsomal CYP450 inhibition, CYP3A4
- Assay Context: human, human liver microsomes, Ki, 3A4, Example 18 table
Readout Type: Ki (nM)
One number for each entry, in nM.

// recorded Ki for CO[P@](=O)(c1cc(C)cc(/C=C/C#N)c1)c1c(C(N)=O)[nH]c2ccc(Cl)c(F)c12 : 360

###

- Test Target: human DNA polymerase gamma (Homo sapiens)
- Sequence (P54098 whole entry): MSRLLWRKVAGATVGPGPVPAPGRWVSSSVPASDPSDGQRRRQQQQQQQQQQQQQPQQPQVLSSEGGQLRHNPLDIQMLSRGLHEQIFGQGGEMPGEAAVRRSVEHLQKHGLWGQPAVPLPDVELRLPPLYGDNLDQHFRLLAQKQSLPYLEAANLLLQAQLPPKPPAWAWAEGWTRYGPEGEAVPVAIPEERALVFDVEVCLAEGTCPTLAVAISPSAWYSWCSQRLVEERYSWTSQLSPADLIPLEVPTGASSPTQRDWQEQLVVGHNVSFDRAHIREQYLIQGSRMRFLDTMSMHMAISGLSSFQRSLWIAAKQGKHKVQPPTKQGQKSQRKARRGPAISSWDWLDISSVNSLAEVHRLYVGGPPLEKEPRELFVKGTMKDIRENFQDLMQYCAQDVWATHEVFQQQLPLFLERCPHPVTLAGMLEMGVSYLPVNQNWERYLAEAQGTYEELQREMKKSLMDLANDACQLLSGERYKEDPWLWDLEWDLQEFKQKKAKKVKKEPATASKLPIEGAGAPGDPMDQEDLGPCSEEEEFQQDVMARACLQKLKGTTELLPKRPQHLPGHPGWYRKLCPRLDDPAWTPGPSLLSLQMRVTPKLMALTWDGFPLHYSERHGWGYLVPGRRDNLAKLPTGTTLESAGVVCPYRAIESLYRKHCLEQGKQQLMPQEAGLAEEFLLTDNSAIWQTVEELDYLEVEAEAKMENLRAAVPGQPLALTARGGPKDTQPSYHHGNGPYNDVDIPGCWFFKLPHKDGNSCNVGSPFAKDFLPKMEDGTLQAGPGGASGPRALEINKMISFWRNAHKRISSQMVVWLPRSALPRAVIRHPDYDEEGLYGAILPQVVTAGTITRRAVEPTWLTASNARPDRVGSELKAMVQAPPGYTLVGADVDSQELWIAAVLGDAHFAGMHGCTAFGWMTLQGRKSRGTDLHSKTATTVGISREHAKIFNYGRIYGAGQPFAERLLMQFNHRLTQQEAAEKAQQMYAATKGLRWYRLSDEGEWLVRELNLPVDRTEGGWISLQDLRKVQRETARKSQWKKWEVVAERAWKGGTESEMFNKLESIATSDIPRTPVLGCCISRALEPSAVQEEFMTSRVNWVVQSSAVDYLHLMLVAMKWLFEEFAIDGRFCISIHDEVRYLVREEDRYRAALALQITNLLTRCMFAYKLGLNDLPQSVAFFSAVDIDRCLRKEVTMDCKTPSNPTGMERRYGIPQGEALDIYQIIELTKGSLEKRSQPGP
- Assay: Human cellular DNA polymerase gamma assay
- Type: biochemical
- Assay Context: Average IC50 Values, DNA Pol Gamma, Table 5; preliminary data from a single experiment
Readout Type: IC50
Value and unit, in that order.

// recorded IC50 for CO[P@](=O)(c1cc(C)cc(/C=C/C#N)c1)c1c(C(N)=O)[nH]c2ccc(Cl)c(F)c12 : 118 µM

###

Field: EC50. Provide a value for each of the compounds that follow.
- Test system: HIV-1 NL4-3 w.t. virus
- Assay: microbe, parasite or virus in culture
- Type: cell-based
- Assay Context: Human immunodeficiency virus 1, NL43, MT4, read-out: Average EC50 Values ± Standard Deviation, W.T.
Give bare numbers, in nM.

// batch mode: one EC50 value per listed entry
1. CO[P@](=O)(c1cc(C)cc(/C=C/C#N)c1)c1c(C(N)=O)[nH]c2ccc(Cl)cc12 [Compound III]
2. O=C1Nc2ccc(Cl)cc2C(C#CC2CC2)(C(F)(F)F)O1 (stereo not drawn) [EFV, reference compound]
3. CO[P@](=O)(c1cc(C)cc(/C=C/C#N)c1)c1c(C(N)=O)[nH]c2ccc(Cl)c(F)c12 [Compound I]

a:
1. 1.7
2. 2.3
3. 2

###

- Test Target: UniProtKB P54098
- Assay: Human cellular DNA polymerase gamma assay
- Type: biochemical
- Assay Context: Mean IC50 Values ± Standard Deviation, DNA Pol Gamma, Table 6; N=4
- Experimental: HIV RT, like other viral polymerase, shares limited structural homology with the cellular DNA polymerases responsible for normal nuclear and mitochondrial DNA synthesis and repair. This raises the formal possibility that inhibitors of HIV RT might inhibit cellular polymerases, resulting in cellular toxicity. […] The ability of Compound I and Compound III to inhibit cellular DNA polymerases was assessed using standard in vitro assays (Table 5).
Readout Type: pIC50
Give bare numbers, as −log10 of the molar value.

CO[P@](=O)(c1cc(C)cc(/C=C/C#N)c1)c1c(C(N)=O)[nH]c2ccc(Cl)c(F)c12 tested on UniProtKB P54098 gave pIC50: 3.93

###

- System: HIV-1 IIIB in MOLT-4 cells
- Assay: Drug susceptibility assay, IIIB in MOLT-4 cells
- Type: cell-based
- Assay Context: Human immunodeficiency virus 1, IIIB, MOLT-4, read-out: Average EC50 Values ± Standard Deviation, host MOLT-4, virus IIIB
Readout Type: EC50 (nM)
Give bare numbers, in nM.

// recorded EC50 for CO[P@](=O)(c1cc(C)cc(/C=C/C#N)c1)c1c(C(N)=O)[nH]c2ccc(Cl)c(F)c12 : 0.7
